Cited source for all entries: ChEMBL document CHEMBL4196167

Here the recorded IC50 is given for each entry.
# Tested on: BV-2
# Assay Remarks: Inhibition of LPS-induced nitric oxide production in mouse BV2 cells after 24 hrs by Griess assay
# Type: functional, cell-based
# Condition Details: BV-2, 24 h
# number only, unit nM dropped from output

Molecule: CO[C@H]1/C=C/C=C/C=C/C[C@H](OC(=O)[C@@H](C)NC(=O)CC(C)C)[C@H](C)[C@@H](O)/C(C)=C\CCc2cc(O)cc(c2)NC(=O)C1
Quantity Name: IC50
Numeric Value: 1100

Kindly consider the entry below.
// returns reported IC50 for input CO[C@H]1/C=C/C=C/C=C/C[C@H](OC(=O)[C@@H](C)NC(=O)CCCC(C)C)[C@H](C)[C@@H](O)/C(C)=C\CCc2cc(O)cc(c2)NC(=O)C1
90
